For each record, write down the corresponding growth.
system: BT-549 breast; assay: NCI-60 one-dose screen, 48 h (100 = growth as untreated, 0 = no growth, -100 = all killed); conditions: 10 µM unless noted
Compounds without any hit were thinned out: in the full panel of roughly 83,000, 20% have a hit.
Answers are plain numbers, in %.

Answered examples (3):
COc1cccc(-c2nc3sccn3c2-c2ccnc(NCCNS(=O)(=O)c3cccc(Cl)c3)c2)c1 | 18.3
COc1ccc2c(c1)O/C(=C\c1cccc(OCC(=O)Nc3nc(C)c(C)s3)c1)C2=O | -81.9
O=C(Nc1cccc2c(O)c(N=Nc3ccc(S(=O)(=O)Nc4nccs4)cc3)cc(N=Nc3ccc(S(=O)(=O)Nc4nccs4)cc3)c12)C(Cl)Cl | 87.3

Kindly give each listed record's growth.
1. Cc1ccc2nc3ccccc3c(NCc3ccccc3)c2c1
2. O=c1cc(-c2ccc(Cl)cc2)[nH]c2ccccc12
3. Cc1ccc(CCC(=O)Nc2ncc(Cc3cc(Cl)ccc3Cl)s2)o1
4. O=C(O)c1ccc2c(c1Cl)C(=O)c1ccccc1C2=O
5. Cc1ccc(NS(=O)(=O)c2ccc3c(c2)C(=O)CC(c2ccc(C(=O)C(C)C)cc2)N3)cc1C (stereo not drawn)
6. COC(=O)c1ccc(CSc2nnc(-c3c(C)nc4ccc(C)cn34)o2)cc1

Given back:
[69, 101, 3.48, 116, 65.6, 100]

Kindly give each listed record's growth.
1. COc1ccc(NC(=O)CSc2nc(C)c(C(C)=O)n2-c2ccc([N+](=O)[O-])cc2)cc1
2. Cc1cc(NCc2cc(Nc3ccnc4cc(Cl)ccc34)ccc2F)nc(N2CCCC2)n1
3. COc1cc(-c2nn(-c3ccccc3)cc2-c2ccnc(NCCNS(=O)(=O)c3ccc(Cl)cc3)n2)ccc1Cl
4. COC(=O)[C@]12CC[C@@H](C)[C@H](C)[C@@H]1C1=CC[C@@H]3[C@@]4(C)C(C=O)=C[C@@](C)(COC(=O)c5ccco5)C4=CC[C@@]3(C)[C@]1(C)CC2
5. O=C(CSc1nnc(-c2ccc(NC(=O)c3cccnc3)cc2)o1)N[C@@H](Cc1ccc(O)cc1)C(=O)O

Given back:
1. 91.5
2. 58.1
3. 16.6
4. 5.64
5. 113

Kindly give each listed record's growth.
1. COc1cc(N2C(=O)c3nccnc3C2=O)cc(OC)c1OC
2. COc1ccc(N=Nc2ccc(O)c(=O)cc2)cc1
3. c1ccc2cc3nc4cc5ccccc5cc4nc3cc2c1
4. COc1ccc(OC)c(-c2c(C#N)c(-c3ccc(Cl)cc3)nc3c2c(-c2ccccc2)nn3-c2ccccc2)c1

Given back:
[95.2, 22, 105, 101]

###

test system: NCI-H23 lung; test: NCI-60 one-dose screen, 48 h; settings: 10 µM unless noted
This is part of a sample that, as a whole, favours compounds with a hit. Of some 83,000 tested, about 20% had one in any assay. Activity calls are given as the source filed them. How the source made its calls: active means growth percent below 10; inactive means the rest.
Select the correct class. Options are class 1 for active, class 0 for inactive and nothing else.

Asked: Fill in: this test's call for "O=C1/C(=C\c2cccnc2)SC(=S)N1CCc1ccc(O)cc1" is ___
Given back: class 0

Asked: Fill in: this test's call for COC(=O)[C@]12CC[C@@H](C)[C@H](C)[C@@H]1C1=CC[C@@H]3[C@@]4(C)C(C=O)=C[C@@](C)(COS(C)(=O)=O)C4[C@H](O)C[C@@]3(C)[C@]1(C)CC2 (stereo partly drawn) is ___
Given back: class 1

Asked: Fill in: this test's call for "COc1ccc(-c2cc(-c3ccc(Nc4nc(Nc5ccc(Cl)cc5)nc(Nc5ccc(Cl)cc5)n4)cc3)nc(N)c2C#N)cc1" is ___
Given back: class 0
